Values compiled from patent US20090111745A1.

biological target: T1, human serum albumin (human, UniProt P02768 25-609); experiment: BIACORE SPR, albumin on a CM5 chip, dAb in solution
T1 construct: also called HSA; HAS
ATTRIBUTE_MEASURED: Kd

Study these solved cases before continuing.
1. DOM7h-23 (other) VH: EVQLLESGGGLVQPGGSLRLSCAASGFTFYDYNMSWVRQAPGKGLEWVSTITHTGGVTYYADSVKGRFTISRDNSKNTLYLQMNSLRAEDTAVYYCAKQNPSYQFDYWGQGTLVTVSS; 500 to 5000 nM
2. DOM7h-8 (other) VL: DIQMTQSPSSLSASVGDRVTITCRASQSISSYLNWYQQKPGKAPKLLIYRNSPLQSGVPSRFSGSGSGTDFTLTISSLQPEDFATYYCQQTYRVPPTFGQGTKVEIKR; 10 to 100 nM
3. DOM7h-2 (other) VL: DIQMTQSPSSLSASVGDRVTITCRASQKIATYLNWYQQKPGKAPKLLIYRSSSLQSAVPSRFSGSGSGTVFTLTISSLQPEDFATYYCQQTYAVPPTFGQGTKVEIKR; 10 to 100 nM
4. DOM7h-1 (other, also called DOM7-1) VL: DIQMTQSPSSLSASVGDRVTITCRASQSISSYLNWYQQKPGKAPKLLIYRNSFLQSGVPSRFSGSGSGTDFTLTISSLQPEDFATYYCQQTYTVPPTFGQGTKVEIKQ; 500 to 5000 nM
5. DOM7h-26 (other) VH: EVQLLESGGGLVQPGGSLRLSCTASGFTFDEYNMSWVRQAPGKGLEWVSTILPHGDRTYYADSVKGRFTISRDNSKNTLYLQMNSLRAEDTAVYYCAKQDPLYRFDYWGQGTLVTVSS; 100 to 500 nM

Let's switch to this binder now.
Task: Param item = DOM7h-7 (other) VL: DIQMTQSPSSLSASVGDRVTITCRASQSISSYLNWYQQKPGKAPKLLIYRNSQLQSGVPSRFSGSGSGTDFTLTISSLQPEDFATYYCQQTFAVPPTFGQGTKVEIKR ; retrieve measured Kd.
Output: 100 to 500 nM
